Assay: Quantitative High-Throughput drug screen in 47 multiple myeloma cell lines against the NCATS MIPE library collection: JIM3_ECACC cell viability assay (AID 1918963; note: nearly all actives have a fitted effect of over 35% in size)
Conditions: JIM3 myeloma viability, CellTiter-Glo ATP, 48 h; series mostly up to 45.8 µM
Results filed as inconclusive are left out. Activity calls are given as the source filed them. Calls come from the whole dose curve; as a rule, active = well fitted cell-killing curve with a large enough effect; inconclusive = small, poorly fitted or top-dose-only effect; inactive = no such curve, though single readings can be large or run the other way.
Labels: active, inactive

1. O=C(CCN1CCN(C(=O)OCc2cc(Cl)cc(Cl)c2)CC1)c1ccc2[nH]c(=O)oc2c1; inactive
2. CC(C)C(=O)Oc1ccc(CO)cc1[C@H](CCN(C(C)C)C(C)C)c1ccccc1; inactive
3. COc1ccc(-n2c(C)c([N+](=O)[O-])c3ccc(O)cc32)cc1; inactive
4. COc1ccc(C2Sc3ccccc3N(CCN(C)C)C(=O)C2OC(C)=O)cc1 (stereo not given); inactive
5. Cn1cc(C=C2C(=O)Nc3cccnc32)c2ccccc21; active
6. O=c1c(-c2ccc(O)cc2)coc2cc(OC3O[C@H](CO)[C@H](O)[C@H](O)[C@H]3O)cc(O)c12 (stereo not given in full); active
7. CO[C@H]1C[C@@H]2CC[C@@H](C)[C@@](O)(O2)C(=O)C(=O)N2CCCC[C@@H]2C(=O)O[C@H]([C@@H](C)C[C@@H]2CC[C@H](O)[C@H](OC)C2)CC(=O)[C@H](C)C=C(C)[C@@H](O)[C@@H](OC)C(=O)[C@H](C)C[C@H](C)C=CC=CC=C1C; inactive
8. COc1ccc(-c2cc(=O)c3c(O)cc(O)cc3o2)cc1O; active
9. CNC(=O)c1ccc2cc(C3(O)CCn4cncc43)ccc2c1 (stereo not given); inactive
10. C[C@@H]1CCN(C(=O)CC#N)C[C@H]1N(C)c1ncnc2[nH]ccc12; inactive

###

Below, each entry is listed alongside its reported Z-AUC.
Assay: qHTS drug screen for cell cycle checkpoint inhibitors in PARPi-resistant BRCA-mutant ovarian cancer cell lines. (AID 1963452)
Conditions: PEO1/OlaR viability, CellTiter-Glo luminescence, 96 h; stronger effect = lower value
Excerpt: Women's Malignancies Branch, Center for Cancer Research (CCR), National Cancer Institute (NCI), National Institutes of Health (NIH), Bethesda, MD Poly (ADP-ribose) polymerase inhibitors (PARPis) have changed the treatment paradigm in breast cancer gene (BRCA) - mutant high-grade serous ovarian carcinoma (HGSC). […] 6; Detection; Luminescence, PHERAstar (BMG Labtech) plate reader. […] 6. Luminescence readings were taken using PHERAstar (BMG Labtech). […]
quantityName: Z-AUC

1) COC1CCC(N(C(=O)C2CCC(C)CC2)c2cc(C3=CCCCC3)sc2C(=O)O)CC1 (stereo unspecified); -0.412
2) O=c1cc(CN2CCOCC2)occ1OCCCCCSc1ccnc2cc(C(F)(F)F)ccc12; -0.111
3) O=C1c2ccccc2-[n+]2ccc3c([nH]c4ccccc43)c21; -1.18
4) Clc1cc(Cl)cc(CNc2ncncc2-c2ccc3c(c2)OCO3)c1; 0.335
5) O=C(CCN1CCN(C(=O)OCc2cc(Cl)cc(Cl)c2)CC1)c1ccc2[nH]c(=O)oc2c1; 0.428
6) COCCOC(=O)C1=C(C)NC2=C(C(=O)CC(c3ccccc3OC)C2)C1c1cccc(O)c1 (stereo unspecified); -0.198
7) CC(=O)N[C@@H](CS)C(=O)O; 0.621
8) COc1cc(N2CCC(N3CCN(C)CC3)CC2)ccc1Nc1ncc(Cl)c(Nc2ccccc2S(=O)(=O)C(C)C)n1; -0.172
9) COCCOc1nc(-c2ccc(Cl)c(Cl)c2)n(-c2ccc(NC(=O)CCl)cc2)n1; -0.18
10) O=C(Nc1c(Cl)cncc1Cl)c1ccc(OC(F)F)c(OCC2CC2)c1; 0.0747
11) CC(=O)O[C@]1(C(C)=O)CC[C@H]2[C@@H]3C=C(Cl)C4=CC(=O)[C@@H]5C[C@@H]5[C@]4(C)[C@H]3CC[C@@]21C; 0.151
12) Cc1ccc(C(=O)Nc2cccc(C(F)(F)F)c2)cc1Nc1nc(-c2cccnc2)nc2c1cnn2C; 0.462
13) NC(=O)[C@@H](CCC(F)(F)F)N(Cc1ccc(-c2ncon2)cc1F)S(=O)(=O)c1ccc(Cl)cc1; 0.459
14) COc1cc2nc(-c3ccc(N4CCN(C)CC4)cc3)nc(NCCN3CCOCC3)c2cc1OC; -0.0476
15) Clc1ccc(CCC(Cn2ccnc2)Sc2c(Cl)cccc2Cl)cc1 (stereo unspecified); 1.27
16) CCNc1cc(NC2CCC(O)CC2)nc(Nc2ccc3c(ccn3Cc3ccccc3)c2)n1 (stereo unspecified); 0.474
17) Cc1cnc(C(=O)O)c[n+]1[O-]; -0.768
18) CO[C@@H](C(=O)N1Cc2[nH]nc(NC(=O)c3ccc(N4CCN(C)CC4)cc3)c2C1)c1ccccc1; -0.0482
19) COc1ccc2c(Oc3ccc(NC(=O)c4c(C)n(CC(C)(C)O)n(-c5ccccc5)c4=O)nc3)ccnc2c1; 0.509
20) Cc1nc(N)sc1-c1ccnc(Nc2ccc(N3CCOCC3)cc2)n1; -0.158
21) NS(=O)(=O)c1ccc(NC2=CC(=O)c3ccccc3C2=O)cc1; -0.549

These measurements were taken from PubChem BioAssay (NCATS).
